Data provenance is patent US20210196796A1.

- TARGET_SYSTEM: T1, orthogonal hCD122 receptor (hoRb), hCD122 with H133D and Y134F (human, UniProt P14784 27-550); note: reference of the scale not given here
- T1 sequence: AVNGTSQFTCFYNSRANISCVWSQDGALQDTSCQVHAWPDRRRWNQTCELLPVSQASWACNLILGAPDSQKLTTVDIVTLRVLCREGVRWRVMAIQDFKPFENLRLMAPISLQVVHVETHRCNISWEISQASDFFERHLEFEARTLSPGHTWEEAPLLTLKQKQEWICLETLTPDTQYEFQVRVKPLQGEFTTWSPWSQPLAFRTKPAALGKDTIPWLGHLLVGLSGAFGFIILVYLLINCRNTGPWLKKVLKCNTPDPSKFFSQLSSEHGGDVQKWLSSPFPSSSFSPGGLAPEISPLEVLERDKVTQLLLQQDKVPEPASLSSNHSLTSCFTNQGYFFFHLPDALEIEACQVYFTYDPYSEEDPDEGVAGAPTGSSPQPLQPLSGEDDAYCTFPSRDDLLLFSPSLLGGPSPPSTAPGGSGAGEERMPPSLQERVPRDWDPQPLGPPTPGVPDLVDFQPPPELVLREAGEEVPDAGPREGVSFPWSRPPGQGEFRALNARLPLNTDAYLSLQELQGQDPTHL
- PROCEDURE_TEXT: cell-based or functional assay
READOUT_KIND: Relative Proliferation Fold Change NKL 1:2 (fold)
Give bare numbers, in fold.

These solved cases illustrate the format of a correct answer.
[
  {
    "BINDER": "L18F, SQVLKA (ligand) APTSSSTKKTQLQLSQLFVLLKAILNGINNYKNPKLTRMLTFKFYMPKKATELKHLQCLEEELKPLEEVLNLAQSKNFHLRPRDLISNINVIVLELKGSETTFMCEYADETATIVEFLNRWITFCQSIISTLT",
    "REPORTED_MEASUREMENT": 3.85
  },
  {
    "BINDER": "M39L, SQVLKA (ligand) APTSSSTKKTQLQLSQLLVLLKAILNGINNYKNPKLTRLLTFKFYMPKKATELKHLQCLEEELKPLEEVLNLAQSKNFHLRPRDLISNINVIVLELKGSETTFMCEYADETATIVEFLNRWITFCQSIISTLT",
    "REPORTED_MEASUREMENT": 4.47
  },
  {
    "BINDER": "ΔA1, SQVLKA (ligand) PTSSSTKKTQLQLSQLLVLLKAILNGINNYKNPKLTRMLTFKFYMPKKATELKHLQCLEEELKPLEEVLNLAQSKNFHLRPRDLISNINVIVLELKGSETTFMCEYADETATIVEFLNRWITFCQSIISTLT",
    "REPORTED_MEASUREMENT": 2.96
  },
  {
    "BINDER": "SQVLKF (ligand) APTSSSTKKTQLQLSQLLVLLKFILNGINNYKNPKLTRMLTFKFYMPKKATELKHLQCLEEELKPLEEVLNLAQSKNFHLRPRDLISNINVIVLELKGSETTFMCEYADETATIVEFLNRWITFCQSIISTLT",
    "REPORTED_MEASUREMENT": 3.54
  },
  {
    "BINDER": "L18M, SQVLKA (ligand) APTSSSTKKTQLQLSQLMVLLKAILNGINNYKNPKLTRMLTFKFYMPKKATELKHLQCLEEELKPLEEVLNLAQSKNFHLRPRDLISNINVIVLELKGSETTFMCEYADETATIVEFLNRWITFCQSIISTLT",
    "REPORTED_MEASUREMENT": 3.7
  },
  {
    "BINDER": "R81Y, SQVLKA (ligand) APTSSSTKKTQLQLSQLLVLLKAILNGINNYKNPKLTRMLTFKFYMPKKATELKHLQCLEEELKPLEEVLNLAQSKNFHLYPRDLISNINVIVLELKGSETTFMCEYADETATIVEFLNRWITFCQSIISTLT",
    "REPORTED_MEASUREMENT": 3.64
  },
  {
    "BINDER": "Q126D, SQVLKA (ligand) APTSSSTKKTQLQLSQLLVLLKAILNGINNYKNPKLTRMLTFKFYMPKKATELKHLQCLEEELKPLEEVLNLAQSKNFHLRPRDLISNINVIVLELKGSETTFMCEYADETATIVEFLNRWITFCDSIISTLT",
    "REPORTED_MEASUREMENT": 0.39
  },
  {
    "BINDER": "SQVLFA (Ref# 079) (ligand) APTSSSTKKTQLQLSQLLVLLFAILNGINNYKNPKLTRMLTFKFYMPKKATELKHLQCLEEELKPLEEVLNLAQSKNFHLRPRDLISNINVIVLELKGSETTFMCEYADETATIVEFLNRWITFCQSIISTLT",
    "REPORTED_MEASUREMENT": 1.23
  }
]

The following binders each have a reported value; give each one's Relative Proliferation Fold Change NKL 1:2.
1. M104A, SQVLKA (ligand) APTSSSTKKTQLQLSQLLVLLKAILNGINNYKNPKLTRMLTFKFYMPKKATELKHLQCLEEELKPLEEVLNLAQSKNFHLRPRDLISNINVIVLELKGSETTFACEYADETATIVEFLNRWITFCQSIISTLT
2. Q126S, SQVLKA (ligand) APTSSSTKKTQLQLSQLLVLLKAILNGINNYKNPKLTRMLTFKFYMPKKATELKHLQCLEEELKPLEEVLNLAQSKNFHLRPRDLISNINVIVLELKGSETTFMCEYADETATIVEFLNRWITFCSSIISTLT
3. ΔD20, SQV_KA (ligand) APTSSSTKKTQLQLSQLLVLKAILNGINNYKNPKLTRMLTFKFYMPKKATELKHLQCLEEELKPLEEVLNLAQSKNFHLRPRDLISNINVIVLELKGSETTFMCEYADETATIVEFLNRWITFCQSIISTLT
4. Q74S, SQVLKA (ligand) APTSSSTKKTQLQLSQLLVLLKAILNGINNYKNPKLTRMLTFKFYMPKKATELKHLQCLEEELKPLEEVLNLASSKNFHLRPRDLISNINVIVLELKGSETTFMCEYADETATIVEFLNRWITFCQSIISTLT
5. ΔM23, SQVLK- (ligand) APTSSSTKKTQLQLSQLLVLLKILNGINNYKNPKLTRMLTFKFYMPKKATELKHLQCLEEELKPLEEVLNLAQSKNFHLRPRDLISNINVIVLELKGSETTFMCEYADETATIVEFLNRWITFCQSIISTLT
6. SQVLYA, E116G (ligand) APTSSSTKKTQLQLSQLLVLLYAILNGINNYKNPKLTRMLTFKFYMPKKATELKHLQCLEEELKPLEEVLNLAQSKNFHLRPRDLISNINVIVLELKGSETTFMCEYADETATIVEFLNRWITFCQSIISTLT

Ans:
1: 3.88; 2: 0.71; 3: 0.52; 4: 4.07; 5: 2.87; 6: 1.21
